System: Fibroblast growth factor receptor 2 (Homo sapiens);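 also: values are mean percent inhibition of FGFR2 kinase, measured within the GSK Published Kinase Inhibitor Set (PKIS) screening panel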
Test parameters: at 0.1 µM
Metric name: inhibition (%)
Output spec: scalar in %, unitless text.

| Compound | Metric name | Recorded value |
| --- | --- | --- |
| CC(C)=Cc1cccc2c1/C(=N/Nc1ccc(S(N)(=O)=O)cc1)C(=O)N2 | inhibition | 3.88 |
| O=C1Nc2ccc(C(=O)c3ccco3)cc2C1=Cc1cc(Cl)c(O)c(Cl)c1 | inhibition | 6.09 |
| O=C1NC(=O)C(c2cccc(Cl)c2)=C1Nc1ccc(O)c(Cl)c1 | inhibition | 3.82 |
| Cc1ccc(C(=O)NC2CCCCC2)cc1-c1ccc(C(=O)NCC2CC2)cc1 | inhibition | 2.75 |
| COc1ccc(-c2coc3ncnc(N)c23)cc1 | inhibition | 3.85 |
| Cc1nnc(-c2ccc(C)c(-c3ccc(C(=O)Nc4cccc(C#N)c4)cc3)c2)o1 | inhibition | 1.7 |
| Fc1cccc(COc2ccc(Nc3ncnc4cc(-c5ccc[nH]5)sc34)cc2Cl)c1 | inhibition | -1.83 |
| CS(=O)(=O)CCNCc1ccc(-c2ccc3ncnc(Nc4ccc(OCc5ccccc5)c(Cl)c4)c3c2)o1 | inhibition | 0.57 |

input: Hi! What's the reported inhibition for CC1=C(C(=O)Nc2ccc3[nH]ncc3c2)C(c2ccc(F)cc2)NC(=O)N1 (stereo not drawn) on Fibroblast growth factor receptor 2 (Homo sapiens)?
output: 3.51

input: Hi! What's the reported inhibition for `Cn1cc(C=C2C(=O)Nc3cccnc32)c2ccccc21` on Fibroblast growth factor receptor 2 (Homo sapiens)?
output: 9.78

input: Hi! What's the reported inhibition for `CCn1c(-c2nonc2N)nc2cncc(C(=O)N3CC[C@H](N)C3)c21` on Fibroblast growth factor receptor 2 (Homo sapiens)?
output: 2.48

input: Hi! What's the reported inhibition for CC1=C(C(=O)Nc2ccc3[nH]ncc3c2)C(c2ccc(Cl)c(Cl)c2)CC(=O)N1 (stereo not drawn) on Fibroblast growth factor receptor 2 (Homo sapiens)?
output: 0.22

input: Hi! What's the reported inhibition for `NC(=O)c1cccc(Nc2nccc(Nc3cccc4[nH]ncc34)n2)c1` on Fibroblast growth factor receptor 2 (Homo sapiens)?
output: -1.94

* * *

System: RAC-gamma serine/threonine-protein kinase (Homo sapiens) (UniProt Q9Y243)
Sequence (Q9Y243 whole entry): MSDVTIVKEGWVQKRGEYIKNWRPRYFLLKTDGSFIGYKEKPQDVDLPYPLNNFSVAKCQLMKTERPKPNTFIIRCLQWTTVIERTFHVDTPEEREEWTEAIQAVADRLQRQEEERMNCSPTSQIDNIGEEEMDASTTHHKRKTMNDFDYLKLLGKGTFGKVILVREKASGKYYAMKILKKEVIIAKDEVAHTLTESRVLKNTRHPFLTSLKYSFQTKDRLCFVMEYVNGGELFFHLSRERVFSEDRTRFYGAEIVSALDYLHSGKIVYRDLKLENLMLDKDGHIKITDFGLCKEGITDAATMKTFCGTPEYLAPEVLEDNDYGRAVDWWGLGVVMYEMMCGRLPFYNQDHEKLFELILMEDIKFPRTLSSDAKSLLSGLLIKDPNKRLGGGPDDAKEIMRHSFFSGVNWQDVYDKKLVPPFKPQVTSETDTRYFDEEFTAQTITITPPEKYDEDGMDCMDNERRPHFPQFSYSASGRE
Test parameters: at 0.1 µM
Description: GSK_PKIS: AKT3 mean inhibition at 0.1 uM [Nanosyn]
Parameter inhibition: see the listing below.
Answer format: value, then unit.

Some entries whose results are on file:
| Compound | inhibition |
| --- | --- |
| CC1=C(C(=O)Nc2ccc3[nH]ncc3c2)C(c2ccc3ccccc3c2)CC(=O)N1 (stereo unspecified) | 1.23% |
| Cc1ccc(NC(=O)c2ccnc(N3CCCC3)c2)cc1-c1ccc(C(=O)NCC2CC2)cc1 | -3.88% |
| Nc1ncnc2occ(-c3ccc(NC(=O)Nc4cc(C(F)(F)F)cc(C(F)(F)F)c4)cc3)c12 | 1.26% |

input: Using the record for `CCn1c(-c2nonc2N)nc2cncc(C(=O)N3CCNCC3)c21` , report its inhibition.
output: 2.05%

input: Using the record for `Cc1cccc(-c2n[nH]cc2-c2ccc3ncccc3n2)n1` , report its inhibition.
output: 2.42%

* * *

System: Serine/threonine-protein kinase SIK2 (Homo sapiens) (UniProt Q9H0K1)
Sequence (Q9H0K1 whole entry, looked up): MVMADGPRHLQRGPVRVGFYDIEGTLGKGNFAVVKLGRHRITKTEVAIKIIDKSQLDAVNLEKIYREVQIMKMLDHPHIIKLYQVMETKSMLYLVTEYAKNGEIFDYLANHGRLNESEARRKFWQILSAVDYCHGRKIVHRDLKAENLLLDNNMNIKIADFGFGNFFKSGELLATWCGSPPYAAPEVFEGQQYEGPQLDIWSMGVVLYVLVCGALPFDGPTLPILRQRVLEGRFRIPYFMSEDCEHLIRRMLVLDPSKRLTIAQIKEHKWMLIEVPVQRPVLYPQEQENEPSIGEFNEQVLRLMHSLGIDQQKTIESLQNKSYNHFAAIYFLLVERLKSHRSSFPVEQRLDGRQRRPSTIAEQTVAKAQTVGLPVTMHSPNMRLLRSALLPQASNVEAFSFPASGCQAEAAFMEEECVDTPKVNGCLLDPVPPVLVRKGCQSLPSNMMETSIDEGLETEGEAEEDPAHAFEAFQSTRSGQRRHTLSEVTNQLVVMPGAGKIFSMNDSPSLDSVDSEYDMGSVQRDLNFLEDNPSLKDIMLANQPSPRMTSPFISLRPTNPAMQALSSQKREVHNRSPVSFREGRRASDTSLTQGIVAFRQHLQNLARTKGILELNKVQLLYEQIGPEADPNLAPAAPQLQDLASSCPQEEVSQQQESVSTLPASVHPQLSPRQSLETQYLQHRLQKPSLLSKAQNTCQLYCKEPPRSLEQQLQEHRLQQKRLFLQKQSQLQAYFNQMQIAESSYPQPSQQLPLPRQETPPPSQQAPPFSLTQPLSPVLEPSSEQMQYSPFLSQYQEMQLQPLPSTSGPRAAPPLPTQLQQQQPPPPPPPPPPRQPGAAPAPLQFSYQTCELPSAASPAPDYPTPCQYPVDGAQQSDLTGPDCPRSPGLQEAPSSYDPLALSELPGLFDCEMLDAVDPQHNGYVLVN
Test parameters: at 0.1 µM
Description: GSK_PKIS: SNF1LK2 (QIK) mean inhibition at 0.1 uM [Nanosyn]
Metric name: inhibition (%)
Output spec: scalar in %, unitless text.

Some entries whose results are on file:
| Molecule | Readout unit | Recorded value |
| --- | --- | --- |
| O=C(Nc1n[nH]c2nc(-c3ccco3)c(Br)cc12)C1CC1 | % | 3.56 |
| CCn1c(-c2nonc2N)nc2c(C#CC(C)(C)O)nc(OC[C@@H](N)c3ccccc3)cc21 | % | -1.91 |
| CC1=C(C(=O)Nc2ccc3[nH]ncc3c2)C(c2ccc(F)cc2)NC(=O)N1 (configuration not stated) | % | 3.04 |
| COc1ccc(-c2coc3ncnc(N)c23)cc1 | % | 5.46 |
| CC1=C(C(=O)Nc2ccc3[nH]ncc3c2)C(c2ccc3ccccc3c2)CC(=O)N1 (configuration not stated) | % | 5.77 |

input: Using the record for `Fc1cccc(COc2ccc(Nc3ncnc4cc(-c5ccc[nH]5)sc34)cc2Cl)c1` , report its inhibition.
output: 3.89

input: Using the record for `COc1cc2c(cc1Nc1nc(N3CCc4ccccc43)c3cc[nH]c3n1)N(C(=O)CN(C)C)CC2` , report its inhibition.
output: 2.51

input: Using the record for `Nc1ncnc2occ(-c3ccc(NC(=O)Nc4cc(C(F)(F)F)cc(C(F)(F)F)c4)cc3)c12` , report its inhibition.
output: 3.48

input: Using the record for `COc1cc2ncn(-c3cc(O[C@@H](C)c4ccccc4Cl)c(C(N)=O)s3)c2cc1OC` , report its inhibition.
output: 2.99

input: Using the record for `CC(C)=Cc1cccc2c1/C(=N/Nc1ccc(S(N)(=O)=O)cc1)C(=O)N2` , report its inhibition.
output: 4.69

input: Using the record for `COc1cccc(-n2ncc3c(N/N=C/c4cccc(F)c4)ncnc32)c1` , report its inhibition.
output: 5.11

input: Using the record for `COC(=O)Nc1nc2cc(Oc3ccc(NC(=O)Nc4cccc(C(=O)O)c4)cc3)ccc2[nH]1` , report its inhibition.
output: -0.04

input: Using the record for `CN(C)c1cc2c(Nc3ccc4nc(Cc5ccccc5)[nH]c4c3)ncnc2cn1` , report its inhibition.
output: 8.08
